# concentration at 1 h listing for each entry below
# protocolText: Mean plasma concentration measured 1 h following an oral dose of 30 mg/kg
# Assay type: ADME, organism-based
# Parameters: dose 30 mg/kg, route oral

{"columns": ["compound", "concentration at 1 h"],
 "data": [
  ["FC(F)(F)CCCSc1nsnc1[C@H]1CN2CCC[C@H]1C2", "805 ng/mL"]
]}

## Input Input CCCCSc1nsnc1[C@@H]1CN2CCC[C@@H]1C2 , output reported concentration at 1 h.
## Output 21 ng/mL

====

# assayedTarget: Muscarinic acetylcholine receptor
# protocolText: Binding affinity against Muscarinic acetylcholine receptors using [3H]oxotremorine-M as radioligand in rat cortex
# Ki listing for each entry below
Reply numerically in nM, unit not repeated.

## Input Input FC(F)(F)CCCSc1nsnc1[C@@H]1CN2CCC[C@H]1C2 , output reported Ki.
## Output 25

## Input Input CC(C)CCCSc1nsnc1C1CN2CCCC1C2 (racemic) , output reported Ki.
## Output 0.91

## Input Input CCCCCCSc1nsnc1C1=CCCN(CC)C1 , output reported Ki.
## Output 18

## Input Input C=CCCCCOc1nsnc1C1=CCCN(C)C1 , output reported Ki.
## Output 3

## Input Input CCCCSc1nsnc1C1=CCCNC1 , output reported Ki.
## Output 3.5

## Input Input FC(F)(F)CCCSc1nsnc1[C@H]1CN2CCC[C@@H]1C2 , output reported Ki.
## Output 9.6

## Input Input FC(F)(F)CCCSc1nsnc1[C@H]1CN2CCC[C@H]1C2 , output reported Ki.
## Output 0.42

## Input Input CCCCCCSc1nccnc1C1CN2CCC1CC2 (configuration not stated) , output reported Ki.
## Output 4

## Input Input FC(F)(F)CCCSc1nsnc1[C@@H]1CN2CCC[C@@H]1C2 , output reported Ki.
## Output 0.33

## Input Input CCCCSc1nsnc1C1CN2CCCC1C2 (racemic) , output reported Ki.
## Output 0.36

## Input Input CCCCOc1nsnc1C1=CCCN(C)C1 , output reported Ki.
## Output 1.4

## Input Input FC(F)(F)CCCCSc1nsnc1[C@@H]1CN2CCC[C@@H]1C2 , output reported Ki.
## Output 0.24

====

# assayedTarget: Muscarinic acetylcholine receptor
# protocolText: Binding affinity against Muscarinic acetylcholine receptors using [3H]oxotremorine-M as radioligand in rat cortex
measure: Ki (nM)
Reply numerically in nM, unit not repeated.

Please review the following examples before continuing.
{"columns": ["molecule", "assayedTarget", "Ki [nM]"],
 "data": [
  ["CN1CCC=C(c2nsnc2SCCCc2cccs2)C1", "Muscarinic acetylcholine receptor", 10],
  ["CN1CCC=C(c2nsnc2SCCCc2ccccc2)C1", "Muscarinic acetylcholine receptor", 1],
  ["CCCCSc1nsnc1[C@@H]1CN2CCC[C@@H]1C2", "Muscarinic acetylcholine receptor", 0.45],
  ["CCCCSc1nccnc1C1CN2CCC1CC2 (stereo unspecified)", "Muscarinic acetylcholine receptor", 0.5]
]}

## Input Input FC(F)(F)CCSc1nsnc1[C@@H]1CN2CCC[C@@H]1C2 , output reported Ki.
## Output 0.44

## Input Input CCCCSc1nsnc1C1CN2CCC1CC2 (stereo unspecified) , output reported Ki.
## Output 0.4
